- System: Nuclear factor NF-kappa-B complex (Homo sapiens) (UniProt Q00653+P19838+Q04206)
- Sequence (P19838 whole entry, looked up): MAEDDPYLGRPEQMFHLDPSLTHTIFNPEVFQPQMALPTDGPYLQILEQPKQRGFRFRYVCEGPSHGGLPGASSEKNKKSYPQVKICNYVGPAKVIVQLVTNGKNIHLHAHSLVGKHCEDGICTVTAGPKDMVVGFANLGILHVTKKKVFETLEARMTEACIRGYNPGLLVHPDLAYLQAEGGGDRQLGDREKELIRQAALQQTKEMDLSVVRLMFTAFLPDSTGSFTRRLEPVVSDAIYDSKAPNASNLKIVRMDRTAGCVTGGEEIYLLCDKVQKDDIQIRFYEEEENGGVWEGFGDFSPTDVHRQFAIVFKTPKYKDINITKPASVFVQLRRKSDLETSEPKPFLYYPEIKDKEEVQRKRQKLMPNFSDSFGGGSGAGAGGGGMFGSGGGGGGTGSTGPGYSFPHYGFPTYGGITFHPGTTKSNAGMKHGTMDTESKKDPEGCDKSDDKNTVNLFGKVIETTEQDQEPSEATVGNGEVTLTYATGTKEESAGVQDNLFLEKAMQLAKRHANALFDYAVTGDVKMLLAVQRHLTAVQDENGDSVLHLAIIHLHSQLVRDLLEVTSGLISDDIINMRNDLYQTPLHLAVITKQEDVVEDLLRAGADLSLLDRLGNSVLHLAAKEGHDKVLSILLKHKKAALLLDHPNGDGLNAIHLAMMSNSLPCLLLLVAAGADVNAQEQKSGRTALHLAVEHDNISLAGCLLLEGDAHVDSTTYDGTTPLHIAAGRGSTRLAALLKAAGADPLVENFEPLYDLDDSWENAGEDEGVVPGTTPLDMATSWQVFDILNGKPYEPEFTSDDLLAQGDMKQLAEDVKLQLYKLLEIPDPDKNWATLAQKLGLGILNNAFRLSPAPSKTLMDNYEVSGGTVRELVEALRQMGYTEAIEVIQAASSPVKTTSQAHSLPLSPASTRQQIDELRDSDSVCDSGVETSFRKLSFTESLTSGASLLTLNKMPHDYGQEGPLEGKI
- Sequence (Q00653 whole entry, looked up): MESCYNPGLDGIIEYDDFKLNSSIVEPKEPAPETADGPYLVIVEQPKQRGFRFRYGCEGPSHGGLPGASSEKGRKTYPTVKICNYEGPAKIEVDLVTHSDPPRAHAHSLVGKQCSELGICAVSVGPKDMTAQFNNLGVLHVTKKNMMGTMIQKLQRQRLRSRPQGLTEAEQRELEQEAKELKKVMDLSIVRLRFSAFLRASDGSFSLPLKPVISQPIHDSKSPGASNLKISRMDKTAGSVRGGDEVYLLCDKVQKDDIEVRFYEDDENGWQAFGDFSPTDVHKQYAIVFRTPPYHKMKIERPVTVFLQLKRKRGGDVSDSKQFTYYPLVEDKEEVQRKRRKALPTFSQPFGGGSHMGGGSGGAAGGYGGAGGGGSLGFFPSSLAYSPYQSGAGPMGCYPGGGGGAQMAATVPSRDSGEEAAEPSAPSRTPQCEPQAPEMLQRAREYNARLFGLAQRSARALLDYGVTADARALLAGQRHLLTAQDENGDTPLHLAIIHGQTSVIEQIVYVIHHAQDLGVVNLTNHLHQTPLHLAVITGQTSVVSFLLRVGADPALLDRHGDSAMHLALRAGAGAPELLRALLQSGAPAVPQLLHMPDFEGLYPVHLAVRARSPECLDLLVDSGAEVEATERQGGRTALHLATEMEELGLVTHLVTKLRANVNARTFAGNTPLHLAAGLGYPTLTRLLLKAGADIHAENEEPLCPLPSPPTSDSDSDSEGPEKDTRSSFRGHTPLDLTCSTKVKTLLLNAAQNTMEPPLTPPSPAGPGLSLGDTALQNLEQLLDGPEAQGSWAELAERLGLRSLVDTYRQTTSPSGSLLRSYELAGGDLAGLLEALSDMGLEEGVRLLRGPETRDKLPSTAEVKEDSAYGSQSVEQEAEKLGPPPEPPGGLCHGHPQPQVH
- Sequence (Q04206 whole entry, looked up): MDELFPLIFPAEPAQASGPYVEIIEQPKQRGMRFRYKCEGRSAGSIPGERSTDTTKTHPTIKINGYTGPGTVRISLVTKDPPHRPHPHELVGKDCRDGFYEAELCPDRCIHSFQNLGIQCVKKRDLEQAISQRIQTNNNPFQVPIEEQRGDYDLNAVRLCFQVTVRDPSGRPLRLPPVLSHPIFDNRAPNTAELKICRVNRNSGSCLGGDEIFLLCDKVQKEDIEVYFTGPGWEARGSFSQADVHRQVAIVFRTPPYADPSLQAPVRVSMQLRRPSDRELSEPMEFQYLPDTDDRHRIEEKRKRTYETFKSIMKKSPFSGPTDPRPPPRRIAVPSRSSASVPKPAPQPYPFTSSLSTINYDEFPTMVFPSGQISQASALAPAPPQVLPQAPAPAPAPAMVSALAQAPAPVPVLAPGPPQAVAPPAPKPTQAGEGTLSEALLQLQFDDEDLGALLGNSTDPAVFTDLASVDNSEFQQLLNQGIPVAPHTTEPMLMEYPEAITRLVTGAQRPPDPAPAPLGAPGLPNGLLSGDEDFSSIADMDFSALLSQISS
- Procedure summary: Concentration required for complete inhibition of Nuclear factor kappa B DNA binding
- Format: protein-complex assay
The reader will find reported IC100 values listed item by item below.
Metric name: IC100 (µM)

[[record]]
compound = "C=C(CO)C(=O)OC/C1=C/C[C@@H]2C(=C)C(=O)O[C@H]2C/C(COC(C)=O)=C\\CC1"
system = "Nuclear factor NF-kappa-B complex (Homo sapiens) (UniProt Q00653+P19838+Q04206)"
recorded_value = 50

[[record]]
compound = "C=C(C)C(=O)O[C@H]1[C@@H]2[C@H](C)C(=O)O[C@@H]2C[C@@H](C)[C@@H]2C=CC(=O)[C@]21C"
system = "Nuclear factor NF-kappa-B complex (Homo sapiens) (UniProt Q00653+P19838+Q04206)"
recorded_value = 100

[[record]]
compound = "C=C1C(=O)OC2[C@H]3O[C@]3(C)CC/C=C(/C)CC[C@@H]12 (stereo partly drawn)"
system = "Nuclear factor NF-kappa-B complex (Homo sapiens) (UniProt Q00653+P19838+Q04206)"
recorded_value = 20

[[record]]
compound = "C=C1C(=O)O[C@@H]2/C=C(/C)[C@]3(O)O[C@@](C)(C[C@@H]3OC)C[C@@H](OC(=O)C(C)C)[C@@H]12"
system = "Nuclear factor NF-kappa-B complex (Homo sapiens) (UniProt Q00653+P19838+Q04206)"
recorded_value = 200

[[record]]
compound = "C=C1C(=O)O[C@@H]2[C@@H]3[C@@](C)(CC[C@@H]12)[C@@H](O)C[C@H]1O[C@@]31C"
system = "Nuclear factor NF-kappa-B complex (Homo sapiens) (UniProt Q00653+P19838+Q04206)"
recorded_value = 200

[[record]]
compound = "C=C(C)C(=O)O[C@H]1[C@H]2C(=C)C(=O)O[C@@H]2[C@@H](O)C(=C)CC/C=C(/C=O)[C@@H]1OC"
system = "Nuclear factor NF-kappa-B complex (Homo sapiens) (UniProt Q00653+P19838+Q04206)"
recorded_value = 50

[[record]]
compound = "C=C1C(=O)O[C@@H]2/C=C(/C)CC/C=C(/C)CC[C@@]12O"
system = "Nuclear factor NF-kappa-B complex (Homo sapiens) (UniProt Q00653+P19838+Q04206)"
recorded_value = 10

[[record]]
compound = "C=C1C(=O)O[C@@H]2C[C@@]3(C)CC(=O)C(OC(C)=O)=C(C)C3C[C@H]12 (stereo partly drawn)"
system = "Nuclear factor NF-kappa-B complex (Homo sapiens) (UniProt Q00653+P19838+Q04206)"
recorded_value = 100

[[record]]
compound = "C=C1C(=O)O[C@]23C[C@H]1CCC(CO)=C2C(=O)C=C3C"
system = "Nuclear factor NF-kappa-B complex (Homo sapiens) (UniProt Q00653+P19838+Q04206)"
recorded_value = 50

[[record]]
compound = "C=C1C(=O)O[C@H]2C/C(CO)=C\\CC/C(COC(=O)C(C)(C)O)=C\\C[C@H]12"
system = "Nuclear factor NF-kappa-B complex (Homo sapiens) (UniProt Q00653+P19838+Q04206)"
recorded_value = 50

[[record]]
compound = "C=C1C(=O)O[C@@H]2[C@H]3C(C)=CC[C@H](O)[C@]3(C)CC[C@@H]12"
system = "Nuclear factor NF-kappa-B complex (Homo sapiens) (UniProt Q00653+P19838+Q04206)"
recorded_value = 300

[[record]]
compound = "C=C1C(=O)O[C@@H]2/C=C(/C)[C@H](OC(C)=O)C/C=C(/C)CC[C@@H]12"
system = "Nuclear factor NF-kappa-B complex (Homo sapiens) (UniProt Q00653+P19838+Q04206)"
recorded_value = 50

[[record]]
compound = "C=C1C(=O)O[C@]23C[C@H]1CCC(COC(C)=O)=C2C(=O)C=C3C"
system = "Nuclear factor NF-kappa-B complex (Homo sapiens) (UniProt Q00653+P19838+Q04206)"
recorded_value = 100

[[record]]
compound = "C=C(C)C(=O)OC/C1=C/C[C@@H]2C(=C)C(=O)O[C@H]2C/C(CO)=C\\CC1"
system = "Nuclear factor NF-kappa-B complex (Homo sapiens) (UniProt Q00653+P19838+Q04206)"
recorded_value = 50

[[record]]
compound = "C=C(C)C(=O)O[C@@H]1CC(C)=C2C(=O)C=C(C)[C@@H]2[C@H]2OC(=O)C(=C)[C@@H]21"
system = "Nuclear factor NF-kappa-B complex (Homo sapiens) (UniProt Q00653+P19838+Q04206)"
recorded_value = 10

[[record]]
compound = "C=C1C(=O)O[C@H]2[C@H]1[C@@H](OC(=O)/C(C)=C/C)C/C(C)=C\\[C@@]1(OC)C=C(C)[C@@H]2O1"
system = "Nuclear factor NF-kappa-B complex (Homo sapiens) (UniProt Q00653+P19838+Q04206)"
recorded_value = 10

[[record]]
compound = "C=C1C(=O)O[C@@H]2/C=C(/COC(=O)C(C)C)CC/C=C(/CO)[C@H](O)C[C@@H]12"
system = "Nuclear factor NF-kappa-B complex (Homo sapiens) (UniProt Q00653+P19838+Q04206)"
recorded_value = 100

[[record]]
compound = "C=C1C(=O)O[C@H]2C/C(CO)=C\\CC/C(COC(=O)C3(C)CO3)=C\\C[C@H]12 (stereo partly drawn)"
system = "Nuclear factor NF-kappa-B complex (Homo sapiens) (UniProt Q00653+P19838+Q04206)"
recorded_value = 50

